Here the recorded log10 of Kd is given for each entry.
target: Cytochrome P450 130 (Mycobacterium tuberculosis (strain CDC 1551 / Oshkosh)); experiment: Binding Assay
Sequence (P9WPN4 whole entry): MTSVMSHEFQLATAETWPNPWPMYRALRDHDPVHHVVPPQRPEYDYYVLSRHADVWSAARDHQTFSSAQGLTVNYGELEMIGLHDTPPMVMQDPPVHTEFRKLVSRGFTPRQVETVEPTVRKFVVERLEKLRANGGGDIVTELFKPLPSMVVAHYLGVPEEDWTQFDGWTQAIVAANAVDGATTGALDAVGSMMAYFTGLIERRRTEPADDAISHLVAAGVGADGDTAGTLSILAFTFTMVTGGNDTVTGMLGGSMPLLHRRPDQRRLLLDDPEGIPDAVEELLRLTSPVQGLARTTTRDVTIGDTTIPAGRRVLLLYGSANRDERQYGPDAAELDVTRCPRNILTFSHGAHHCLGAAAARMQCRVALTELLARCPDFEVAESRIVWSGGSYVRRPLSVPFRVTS
quantity kind: log10 of Kd (log10 of the value in µM)

compound | log10 of Kd
NCc1ccccc1 | 4.00
Clc1ccccc1C(c1ccccc1)(c1ccccc1)n1ccnc1 | 1.12
Cc1cccc(-n2cnc3cc(N)ccc32)c1 | 0.68
Clc1ccc(COC(Cn2ccnc2)c2ccc(Cl)cc2Cl)cc1 (stereo unspecified) | 0.29
Nc1ccc(Sc2ccc(N3C(=O)c4ccc(N)cc4C3=O)cc2)cc1 | 0.03
Nc1ccccc1 | 1.74
